B1: KRT33B (parent)
chain: YQSYFKTIEELQQKILCSKSENAR

variants of: B1; experiment: protein stability index of a GFP-peptide fusion (GPS, HEK-293T) (PSI 1-6); higher = more stable; conditions: c terminus: a fixed tail appended;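 note: lentivirally expressed fusions sorted by FACS into six bins by GFP to DsRed ratio, PSI derived from sequencing read proportions per bin multiplied by bin number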
property_measured: protein stability index
Note: the reply should be a number with no unit written.

// worked examples, protein stability index included
variant_string: T7N
property_measured: protein stability index
assay_result: 2.23
--
variant_string: I15F
property_measured: protein stability index
assay_result: 2
--
variant_string: K6H
property_measured: protein stability index
assay_result: 1.62
--
variant_string: S18E
property_measured: protein stability index
assay_result: 2.12
--
variant_string: T7W
property_measured: protein stability index
assay_result: 1.8
--
variant_string: K14Y
property_measured: protein stability index
assay_result: 1.61
--
variant_string: S18C
property_measured: protein stability index
assay_result: 2.65

Annotate the variant R24F with its measured protein stability index.
1.47
